// data source = PubChem BioAssay AID1963849

Consider the following molecules; for each one, report its viability, T/C.
test system: 299254-011-R-J1-PDC complex spheroid viability; experiment: Anticancer human tumor 299254-011-R-J1-PDC patient-derived melanoma cell line growth inhibition [POLQ]; settings: second compound 0.316 µM; first compound 10 µM; stronger effect = lower value;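 note: spheroids exposed to drugs for one week before measurement; percent viability relative to DMSO vehicle control taken as 100%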
# unit: % | format: bare number

Problem: Output measured viability, T/C for this item: Nc1ccn(C2OC(CO)C(O)C2(F)F)c(=O)n1 (stereo unspecified) + Cc1cccc(N(C)C(=O)C2C(O)CCN2c2nc(C)cc(C(F)(F)F)c2C#N)c1
Solution: 35.8

Problem: Read the entry O=c1[nH]cc(F)c(=O)[nH]1 + Cc1cccc(N(C)C(=O)C2C(O)CCN2c2nc(C)cc(C(F)(F)F)c2C#N)c1 and write its reported viability, T/C.
Solution: 67.6

Problem: Give the measured viability, T/C for CCc1cc2c(N3CCc4c(cc(Cn5ccnc5)cc4-c4cn(C)nc4C(F)(F)F)C3=O)ccnc2c(OC)n1 + Cc1cccc(N(C)C(=O)C2C(O)CCN2c2nc(C)cc(C(F)(F)F)c2C#N)c1
Solution: 72.8

Problem: In one line, give reported viability, T/C of the entry COc1cc(C2c3cc4c(cc3C(OC3OC5COC(C)OC5C(O)C3O)C3COC(=O)C23)OCO4)cc(OC)c1O (stereo unspecified) + Cc1cccc(N(C)C(=O)C2C(O)CCN2c2nc(C)cc(C(F)(F)F)c2C#N)c1 .
Solution: 59.5

Problem: // Input: CCc1cc2c(N3CCc4c(cc(Cn5ccnc5)cc4-c4cn(C)nc4C(F)(F)F)C3=O)ccnc2c(OC)n1 + COC1C(OC(N)=O)C(O)C(Oc2ccc3c(O)c(NC(=O)c4ccc(O)c(CC=C(C)C)c4)c(=O)oc3c2C)OC1(C)C . Output its viability, T/C only.
Solution: 91.4

Problem: Fill in viability, T/C for record O=C(c1cc(Cc2n[nH]c(=O)c3ccccc23)ccc1F)N1CCN(C(=O)C2CC2)CC1 + Nc1ccc(C#CCN(C(=O)Cc2ncc(C(F)(F)F)cc2C(F)(F)F)c2ccc(F)cc2)nn1
Solution: 84.6

Problem: Name the recorded viability, T/C of the item O=C(Nc1ccc(O)c(NS(=O)(=O)c2ccc(F)cc2)c1)c1ccc(-c2ccccc2)cc1 + Nc1ccc(C#CCN(C(=O)Cc2ncc(C(F)(F)F)cc2C(F)(F)F)c2ccc(F)cc2)nn1 in your answer.
Solution: 44.9

Problem: Specify reported viability, T/C for the molecule shown: COc1cc(C2c3cc4c(cc3C(OC3OC5COC(C)OC5C(O)C3O)C3COC(=O)C23)OCO4)cc(OC)c1O (stereo unspecified) + COC1C(OC(N)=O)C(O)C(Oc2ccc3c(O)c(NC(=O)c4ccc(O)c(CC=C(C)C)c4)c(=O)oc3c2C)OC1(C)C
Solution: 55.4

Problem: Return viability, T/C for the following molecule: COc1cc2cc(C(=O)CCC(=O)O)sc2cc1OC + Cc1cccc(N(C)C(=O)C2C(O)CCN2c2nc(C)cc(C(F)(F)F)c2C#N)c1
Solution: 104

Problem: Dear colleague, please send me the reported viability, T/C for CCCS(=O)(=O)Nc1ccc(F)c(C(=O)c2c[nH]c3ncc(-c4ccc(Cl)cc4)cc23)c1F + COC1C(OC(N)=O)C(O)C(Oc2ccc3c(O)c(NC(=O)c4ccc(O)c(CC=C(C)C)c4)c(=O)oc3c2C)OC1(C)C when you can.
Solution: 68.8

Problem: Provide one value: measured viability, T/C of COc1ccc([C@@H](O)c2cc(-c3ncnc4cc(N5CCOCC5)ccc34)c(F)cc2Cl)nn1 + Nc1ccc(C#CCN(C(=O)Cc2ncc(C(F)(F)F)cc2C(F)(F)F)c2ccc(F)cc2)nn1
Solution: 54.3
